Test system: Mus musculus
Protocol Details: Anticonvulsant activity in ip dosed mouse assessed as inhibition of maximum electric shock-induced hind limb tonic extension after 4 hrs
Format: functional
Applied Conditions: Hindlimb, read-out: MED

Compound: CC1(C)CC12NC(=O)N(NC(=O)c1ccc(Cl)cc1)C2=O (stereo not drawn)
minimal effective dose: 300 mg/kg
//
Compound: CC1(C)CC12NC(=O)N(NC(=O)c1ccco1)C2=O (stereo not drawn)
minimal effective dose: 300 mg/kg
//
Compound: CC(C)(C)c1ccc(C(=O)NN2C(=O)NC3(CC3(C)C)C2=O)cc1 (stereo not drawn)
minimal effective dose: 100 mg/kg

----------
Protocol Details: Toxicity against ip dosed mouse
Assay type: organism-based
Applied Conditions: in vivo
# Lookup of reported TD50 keyed by entry
Measured Property: TD50 (mg/kg)

Compound: CC1(C)CC12NC(=O)N(N1C(=O)c3ccccc3C1=O)C2=O (stereo not drawn)
Measured Property: TD50
Numeric Result: 387
//
Compound: CC(C)(C)c1ccc(C(=O)NN2C(=O)NC3(CC3(C)C)C2=O)cc1 (stereo not drawn)
Measured Property: TD50
Numeric Result: 382
//
Compound: CC1(C)CC12NC(=O)N(NC(=O)c1ccc(C(F)(F)F)cc1)C2=O (stereo not drawn)
Measured Property: TD50
Numeric Result: 422

All values here come from ChEMBL document CHEMBL1629500.
